Values were extracted from PubChem BioAssay AID485346.

# Tested target: Protein Mdm4 (Homo sapiens) + E3 ubiquitin-protein ligase Mdm2 (Homo sapiens) (UniProt O15151+Q00987)
# Sequence (O15151 whole entry, looked up): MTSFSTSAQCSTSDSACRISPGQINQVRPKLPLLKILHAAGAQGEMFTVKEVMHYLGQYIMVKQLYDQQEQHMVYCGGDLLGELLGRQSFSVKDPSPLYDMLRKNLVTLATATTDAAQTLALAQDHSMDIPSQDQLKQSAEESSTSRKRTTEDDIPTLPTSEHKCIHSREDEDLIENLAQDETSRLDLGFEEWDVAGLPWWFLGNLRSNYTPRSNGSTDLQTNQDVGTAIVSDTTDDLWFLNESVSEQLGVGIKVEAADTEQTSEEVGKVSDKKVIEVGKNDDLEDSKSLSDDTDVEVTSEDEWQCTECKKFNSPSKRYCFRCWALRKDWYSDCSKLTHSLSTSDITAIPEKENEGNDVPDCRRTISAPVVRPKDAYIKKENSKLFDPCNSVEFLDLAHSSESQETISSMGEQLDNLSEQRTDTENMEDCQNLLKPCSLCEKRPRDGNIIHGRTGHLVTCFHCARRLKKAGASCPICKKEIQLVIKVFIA
# Sequence (Q00987 whole entry, looked up): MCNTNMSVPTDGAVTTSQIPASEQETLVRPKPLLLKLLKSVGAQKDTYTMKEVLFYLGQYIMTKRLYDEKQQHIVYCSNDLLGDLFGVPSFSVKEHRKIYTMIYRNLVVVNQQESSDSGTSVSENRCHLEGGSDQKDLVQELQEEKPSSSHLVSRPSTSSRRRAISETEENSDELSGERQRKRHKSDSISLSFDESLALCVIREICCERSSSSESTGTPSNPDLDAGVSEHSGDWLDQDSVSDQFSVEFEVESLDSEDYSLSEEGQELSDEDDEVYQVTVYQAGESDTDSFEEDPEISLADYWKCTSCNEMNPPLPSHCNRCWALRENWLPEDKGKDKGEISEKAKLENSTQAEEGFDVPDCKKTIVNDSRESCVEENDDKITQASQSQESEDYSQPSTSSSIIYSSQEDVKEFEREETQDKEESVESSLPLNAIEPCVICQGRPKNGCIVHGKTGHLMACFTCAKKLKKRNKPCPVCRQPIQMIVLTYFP
# Protocol details: inhibitors of human Mdm2-MdmX association, primary screen, cell-based, luminescence, split luciferase, SaOS-2, uHTS (AID 485346)
# Run conditions: SaOS-2 split-luciferase Mdm2/MdmX complementation, at 8 µM, stronger effect = higher value
Screen size: about 330,000 compounds; about 10,000 (3%) were called active. The sample as a whole holds a higher share of actives than the screen did.
inhibition of 10% or higher: label 1. Under 10%: label 0.

[[record]]
molecule = "C=CCN(CC=C)C(=O)CN1C(=O)c2ccccc2C1=O"
class_name = "label 1"

[[record]]
molecule = "C=CCn1c(C)cc(C(=O)CN2C(=O)c3ccccc3C2=O)c1C"
class_name = "label 1"

[[record]]
molecule = "COc1cccc(CNC(=O)CN2C(=O)NC(Cc3ccccc3)(c3ccccc3)C2=O)c1 (stereo not given)"
class_name = "label 0"

[[record]]
molecule = "COc1cccc(CNC(=O)c2nnn(CC(=O)Nc3cc(Cl)ccc3C)c2N)c1"
class_name = "label 1"

[[record]]
molecule = "CC(OC(=O)CCc1nc(=O)c2ccccc2n1C)C(=O)NCc1ccc2c(c1)OCO2 (stereo not given)"
class_name = "label 0"

[[record]]
molecule = "Cc1cc(C(=O)COC(=O)CCCN2C(=O)c3ccccc3C2=O)c(C)n1C"
class_name = "label 0"

[[record]]
molecule = "Cc1ccc(-n2c(SCC(=O)NCCC3=CCCCC3)nc3n[nH]c(C)c3c2=N)cc1Cl"
class_name = "label 1"

[[record]]
molecule = "Cc1noc(C)c1-c1ccc2ncnc(NC(C)c3ccco3)c2c1 (stereo not given)"
class_name = "label 1"

[[record]]
molecule = "Cc1cccc(C(=O)OC(C)C(=O)NC2CCCc3ccccc32)c1O (stereo not given)"
class_name = "label 1"

[[record]]
molecule = "COc1ccc(CNC(=O)c2nnn(CC(=O)Nc3cc(C)cc(C)c3)c2N)cc1"
class_name = "label 1"


* * *

# Tested target: Protein Mdm4 (Homo sapiens) + E3 ubiquitin-protein ligase Mdm2 (Homo sapiens) (UniProt O15151+Q00987)
# Protocol details: inhibitors of human Mdm2-MdmX association, primary screen, cell-based, luminescence, split luciferase, SaOS-2, uHTS (AID 485346)
# Run conditions: SaOS-2 split-luciferase Mdm2/MdmX complementation, at 8 µM, stronger effect = higher value
The whole screen tested about 330,000 compounds, of which about 10,000 (3%) were called active. The full list was thinned out, with actives kept by preference.
Experimental endpoint: inhibition

[[record]]
compound = "O=C(CCNC(=O)c1ccccc1)Nc1nc2ccccc2s1"
experimental_endpoint = "inhibition"
measurement = "-16.2% (inactive)"

[[record]]
compound = "CC1(C)NC(=O)N(CCCCSc2ccc(Cl)cc2)C1=O"
experimental_endpoint = "inhibition"
measurement = "5.07% (inactive)"

[[record]]
compound = "Cc1ccc2c(c1)C1C[N+](C)(CC(=O)c3ccccc3)CCC1N2C(=O)c1ccccc1Cl (stereo not drawn)"
experimental_endpoint = "inhibition"
measurement = "-17.1% (inactive)"

[[record]]
compound = "CN(NC(=O)c1ccccc1F)c1nc(C(F)(F)F)nc2ccccc12"
experimental_endpoint = "inhibition"
measurement = "60.3% (active)"

[[record]]
compound = "CN(NC(=O)c1ccccc1)c1nc2ccccc2nc1C(F)(F)F"
experimental_endpoint = "inhibition"
measurement = "59.8% (active)"

[[record]]
compound = "Cc1nc2ccccc2c(=O)n1NC(=O)c1ccccc1"
experimental_endpoint = "inhibition"
measurement = "-5.89% (inactive)"

[[record]]
compound = "N#Cc1nc(-c2cccc3ccccc23)oc1N"
experimental_endpoint = "inhibition"
measurement = "23% (inactive)"

[[record]]
compound = "Cc1cccc(NC(=S)NCc2ccc3[nH]c4c(c3c2)CCCC4)c1"
experimental_endpoint = "inhibition"
measurement = "63.6% (active)"

[[record]]
compound = "O=C(N/N=C/c1cc2c(cc1Br)OCO2)C1COc2ccccc2O1 (stereo not drawn)"
experimental_endpoint = "inhibition"
measurement = "3.36% (inactive)"

[[record]]
compound = "O=C(NC(Nc1nc2ccc([N+](=O)[O-])cc2s1)(C(F)(F)F)C(F)(F)F)c1ccccc1"
experimental_endpoint = "inhibition"
measurement = "99.3% (active)"

[[record]]
compound = "O=C(N/N=C\\c1cc2c(cc1Cl)OCO2)c1ccc(Br)s1"
experimental_endpoint = "inhibition"
measurement = "87.3% (active)"

[[record]]
compound = "COC(=O)Nc1ncc(CN2C(=O)c3ccccc3C2=O)s1"
experimental_endpoint = "inhibition"
measurement = "12.4% (inactive)"

[[record]]
compound = "O=C(CNC(=O)c1ccccc1)Oc1ccc([N+](=O)[O-])cc1"
experimental_endpoint = "inhibition"
measurement = "-9.24% (inactive)"

[[record]]
compound = "O=C(COC(=O)c1cc(-c2cccs2)nn1-c1ccccc1)Nc1cc([N+](=O)[O-])ccc1Cl"
experimental_endpoint = "inhibition"
measurement = "-2.96% (inactive)"

[[record]]
compound = "COc1ccc(Nc2nnc(C)c3ccccc23)cc1"
experimental_endpoint = "inhibition"
measurement = "5.02% (inactive)"

[[record]]
compound = "COC(=O)c1ccccc1NC(=O)CSc1nnnn1C"
experimental_endpoint = "inhibition"
measurement = "-3.43% (inactive)"

[[record]]
compound = "CNC(=O)c1ccsc1NC(=O)c1ccc(S(=O)(=O)N2CCc3ccccc32)cc1"
experimental_endpoint = "inhibition"
measurement = "38% (inactive)"

[[record]]
compound = "CC(NC(=O)c1ccccc1F)c1cccc2ccccc12 (stereo not drawn)"
experimental_endpoint = "inhibition"
measurement = "3.89% (inactive)"

[[record]]
compound = "Cn1c(CC(=O)NNC(=O)c2ccccc2F)nc2ccccc21"
experimental_endpoint = "inhibition"
measurement = "8.1% (inactive)"

[[record]]
compound = "Cc1ccc(NC(=O)c2cccc(S(=O)(=O)N3CCCc4ccccc43)c2)nc1"
experimental_endpoint = "inhibition"
measurement = "2.43% (inactive)"

[[record]]
compound = "Cc1cccc(C(=O)Nc2ccc(C(=O)N/N=C/c3cccc(C)n3)cc2)c1"
experimental_endpoint = "inhibition"
measurement = "8.86% (inactive)"

[[record]]
compound = "CSc1nc(N(C)NC(=O)c2cccc(C)c2)c2ccccc2n1"
experimental_endpoint = "inhibition"
measurement = "63% (active)"

[[record]]
compound = "COc1ccc(C(=O)NN(C)c2nc(-c3ccccc3)cc(C)c2S(C)(=O)=O)cc1"
experimental_endpoint = "inhibition"
measurement = "2.68% (inactive)"


* * *

# Lookup of reported inhibition keyed by entry
# Tested target: Protein Mdm4 (Homo sapiens) + E3 ubiquitin-protein ligase Mdm2 (Homo sapiens) (UniProt O15151+Q00987)
# Protocol details: inhibitors of human Mdm2-MdmX association, primary screen, cell-based, luminescence, split luciferase, SaOS-2, uHTS (AID 485346)
# Run conditions: SaOS-2 split-luciferase Mdm2/MdmX complementation, at 8 µM, stronger effect = higher value
About 10,000 (3%) of roughly 330,000 compounds were called active. Many of the other results were omitted from the sample, so actives are more common in it than they were.
Experimental endpoint: inhibition (%)

[[record]]
molecule = "CC1CN(C(=O)CCC(=O)NCc2cccnc2)c2ccccc2O1 (centres undefined)"
measurement = -8.45

[[record]]
molecule = "COc1ccc(C(C(=O)NC2CCCCC2)N(C(=O)CCl)c2ccccc2Cl)cc1 (centres undefined)"
measurement = 92

[[record]]
molecule = "CCOc1ccc(CN2CCN(Cc3ccc4cc(F)ccc4n3)CC2CCO)cc1 (centres undefined)"
measurement = -16.3

[[record]]
molecule = "c1ccc(-c2cc(-c3ccccc3)[nH]n2)cc1"
measurement = -145

[[record]]
molecule = "CC(C)(C)n1nnc(CCc2nnn(C(C)(C)C)n2)n1"
measurement = 13.5

[[record]]
molecule = "COc1ccc(S(=O)(=O)N2CCCC2CNC(=O)C(=O)NC2CC2)cc1 (centres undefined)"
measurement = 5.26

[[record]]
molecule = "CCCCCCSc1ccc([C@@H]2[C@@H]3C(=O)N(CC)C(=O)[C@@H]3[C@]3(C(=O)OC)CCCCN23)cc1OC"
measurement = 54.2

[[record]]
molecule = "CCN1C(=O)[C@@H]2[C@@H](c3ccc(-c4ccc(OC)cc4)c(OC)c3)N3CCC[C@@]3(C(=O)OC)[C@@H]2C1=O"
measurement = 28.1

[[record]]
molecule = "CCCCCCSc1ccc([C@@H]2[C@H]3C(=O)N(CC)C(=O)[C@H]3[C@]3(C(=O)OC)CCCCN23)cc1"
measurement = 29.8

[[record]]
molecule = "C[C@@H](O)c1nc2ccccc2n1N"
measurement = -21.5

[[record]]
molecule = "O=C(Cc1ccc(Cl)c(Cl)c1)Nc1ccc(SC(F)F)cc1"
measurement = 72.9

[[record]]
molecule = "CCCN(CCC)c1nc2c(C)cccn2c(=O)c1/C=C1/SC(=S)N(Cc2ccco2)C1=O"
measurement = 2.98

[[record]]
molecule = "COc1ccc(CN(C)C(=O)CC(c2ccccc2)c2ccccc2)cc1"
measurement = 2.66

[[record]]
molecule = "Cc1cc(C)c(NC(=O)C[N+](C)(C)CC(O)COc2cccc3ccccc23)c(C)c1 (centres undefined)"
measurement = 12.6

[[record]]
molecule = "CS(=O)(=O)c1ccc(Cl)c(NC(=O)COC(=O)c2ncc(Cl)c(Cl)c2Cl)c1"
measurement = 13.8

[[record]]
molecule = "Cc1ccc(/C=C/C(=O)OCC(=O)Nc2cccnc2Cl)cc1"
measurement = 7.79

[[record]]
molecule = "CC(=O)N1CCN(CC(=O)Nc2ccc(SC(F)F)cc2)CC1"
measurement = -2.95

[[record]]
molecule = "CC[C@]1(C(=O)OC)[C@H]2C(=O)N(Cc3ccccc3)C(=O)[C@H]2[C@H]2CN=C(SCc3ccc(C#N)cc3)N21"
measurement = 93

[[record]]
molecule = "CC(C)c1ccccc1OCC(O)CN(CC(O)COc1cccc2ccccc12)C(C)C (centres undefined)"
measurement = 59.8

[[record]]
molecule = "CCN(CCCNC(=O)C1CCN(S(=O)(=O)c2cnc[nH]2)CC1)c1ccccc1"
measurement = 37.3

[[record]]
molecule = "COC(=O)CCC(=O)N1CCCC(CO)(Cc2ccccc2)C1 (centres undefined)"
measurement = -73.8

[[record]]
molecule = "CCN1/C(=C\\c2ccc3ccccc3[n+]2CC)Sc2cc(C)ccc21"
measurement = 77.1

[[record]]
molecule = "CCN(CCCNC(=O)CCn1c(=O)[nH]c2ccsc2c1=O)c1ccccc1"
measurement = 0.795

[[record]]
molecule = "CCOC(=O)N1CCN(C(=O)CSc2nc(=O)n3cccc(C)c3n2)CC1"
measurement = -0.597

[[record]]
molecule = "CN(C)/C(CN1CCCCC1)=C1\\N=C(c2ccccc2)OC1=O"
measurement = 0.454

[[record]]
molecule = "CNC1(c2nnnn2-c2c(C)cccc2C)CCOC(C)(C)C1 (centres undefined)"
measurement = 1.22

[[record]]
molecule = "CCC(C)Sc1nc2c(c(=O)[nH]c(=O)n2C)n1CC(O)COc1cccc2ccccc12 (centres undefined)"
measurement = 16.9

[[record]]
molecule = "COc1ccc(NC(=O)CN(C)C(=O)/C=C/c2cn(Cc3ccccc3)nc2-c2cccnc2)cc1"
measurement = 9.31

[[record]]
molecule = "Cn1c(=O)[nH]c(=O)c2c1nc(NCCCn1ccnc1)n2Cc1cccc(Br)c1"
measurement = 34.5

[[record]]
molecule = "Cc1cc(C)c(C#N)c(SCC(=O)N(CC(C)C)C2CCS(=O)(=O)C2)n1 (centres undefined)"
measurement = 18

[[record]]
molecule = "CC1CN(C(=O)CCC(=O)NCCCN2CCC(Cc3ccccc3)CC2)c2cc(Cl)ccc2O1 (centres undefined)"
measurement = 90.6

[[record]]
molecule = "CC[C@]1(C(=O)OC)[C@H]2C(=O)N(Cc3ccccc3)C(=O)[C@H]2[C@H]2CN=C(SCc3ccccc3)N21"
measurement = 70

[[record]]
molecule = "CC[C@]1(C(=O)OC)[C@H]2C(=O)N(Cc3ccccc3)C(=O)[C@H]2[C@H]2CN=C(SCc3ccc(Cl)cc3)N21"
measurement = 99.6

[[record]]
molecule = "Cc1cc(C)n(CCNCc2c(C(=O)N3C[C@@H](C)O[C@@H](C)C3)nc3ccc(Cl)cn23)n1"
measurement = 6.66

[[record]]
molecule = "CCN(C[C@H]1N[C@@](CC)(C(=O)OC)[C@H]2C(=O)N(Cc3ccccc3)C(=O)[C@@H]12)S(=O)(=O)c1ccccc1"
measurement = 9.24

[[record]]
molecule = "CC1CN(C(=O)CCC(=O)NC2CCN(Cc3ccccc3)CC2)c2ccccc2O1 (centres undefined)"
measurement = 22.7

[[record]]
molecule = "COc1ccc(CC(=O)N[C@@H]2c3cc(OC)c(OC)cc3C[C@H]2OCc2ccccc2)cc1"
measurement = 38.6

[[record]]
molecule = "C=CCNc1cnn(-c2ccc(C)cc2)c(=O)c1Cl"
measurement = -8.88

[[record]]
molecule = "COc1cccc(N(C(=O)C2COc3ccccc3O2)C(C(=O)NC2CCCCC2)c2ccc(O)cc2)c1 (centres undefined)"
measurement = 5.54

